pKi: −log10 of the molar value.
Kindly state pKi for each of the entries shown.

Hey, 5-hydroxytryptamine receptor 1E (Homo sapiens, UniProt P28566) data for Cc1[nH]c2ccc(O)cc2c1CCN : pKi came out at < 5.00

Hey, 5-hydroxytryptamine receptor 1E (Homo sapiens, UniProt P28566) data for COc1ccc2[nH]c(C)c(CCN)c2c1 : pKi came out at < 5.00

---

Readout label: pKi
Please keep in mind that pKi is minus log10 of the molar concentration; only the number is needed.

Hey, 5-hydroxytryptamine receptor 2C (Rattus norvegicus) data for COc1ccc2[nH]c(C)c(CCN)c2c1 : pKi came out at 6.16

Hey, 5-hydroxytryptamine receptor 2C (Rattus norvegicus) data for Cc1[nH]c2ccc(O)cc2c1CCN : pKi came out at 6.19
